- study.system: GAPDH (Homo sapiens, UniProt P04406 1-335)
- Sequence (P04406 whole entry): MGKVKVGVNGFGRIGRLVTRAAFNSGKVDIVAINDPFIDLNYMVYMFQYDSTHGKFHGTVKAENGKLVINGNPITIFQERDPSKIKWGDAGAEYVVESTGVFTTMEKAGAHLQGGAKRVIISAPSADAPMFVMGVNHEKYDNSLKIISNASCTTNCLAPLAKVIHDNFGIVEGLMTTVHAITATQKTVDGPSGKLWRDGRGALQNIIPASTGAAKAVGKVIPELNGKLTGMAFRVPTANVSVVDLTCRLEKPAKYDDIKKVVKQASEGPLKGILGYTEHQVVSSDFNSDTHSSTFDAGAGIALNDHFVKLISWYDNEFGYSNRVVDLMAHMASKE
- test.name: fluorescence polarization; 10 mM Tris-HCl pH 8.0, 50 mM KCl, 2 mM DTT, 0.5 mM EDTA, 0.1 mg/ml BSA, 0.1 mg/ml heparin, room temperature; FP 30 min with 2 nM RNA; EMSA 20 min plus 10% glycerol and RiboLock, 6% native gel at 4°C; mass photometry without BSA/heparin
- test.context: protein: recombinant; tags: N-terminal His; chain copies: 4; S17 legend says FITC-labeled RNA; single strand
measurement.label: Kd (nM)

UGGCCAAUGCCCUGGCUCACAAAUACCACUG (ssRNA) [Rβ31]: 1310
